Reported GC Abundance values are given for each entry in this list.
Assay: GC-MS headspace release profile of Tropical Fruit perfume in shampoo, 1/100 dilution in water
Format: physicochemical
Details: headspace at 20 seconds

Check out these entries, answers already filled in.
molecule	obs_value
CC(C)=CCCC(C)CCO (centres unmarked)	7000
CCC(C)(O)CCC=C(C)C (centres unmarked) [DIHYDROLINALOOL]	3000
C=C(C)[C@H]1CC=C(C)CC1	7000
CC/C=C\CCOC(=O)OC	3000

Enquiry: I am curious: what GC Abundance value has been reported for "CCOC(=O)CC1(C)OCCO1" ?
Return: 3000

###

Experiment: GC-MS headspace release profile of Tropical Fruit perfume in shampoo, 1/100 dilution in water
Type: physicochemical
Settings: headspace at 40 seconds
readout: GC Abundance
Form field (numeric): enter value without unit.

Enquiry: Report GC Abundance for CC(=O)OC1CCC(C(C)(C)C)CC1 (stereo not shown) [VERTENEX HC] please.
Return: 8000

Enquiry: Recorded GC Abundance for C=CCOC(=O)CCCCCC [ALLYL HEPTOATE] , please?
Return: 12000

Enquiry: Given the entry CCC=C(C)C(O)CCCCC (stereo not shown) [UNDECAVERTOL, 4-Methyl-3-decen-5-ol] , report its measured GC Abundance.
Return: 10000

Enquiry: Request the reported GC Abundance associated with CCOC(=O)C(C)CC (stereo not shown) [Ethyl 2-methylbutyrate]
Return: 2000

Enquiry: Tell me the measured GC Abundance of CC(C)CC1CC(C)(O)CCO1 (stereo not shown) [FLOROL] , please.
Return: 10000

Enquiry: Query (compound): CC1=CC(C)C(C=O)CC1 (stereo not shown) [TRIPLAL] ; field requested: GC Abundance
Return: 10000

Enquiry: Any idea what GC Abundance was measured for CCCCCCC1CCC(=O)O1 (stereo not shown) [GAMMA-DECALACTONE, 5-Hexyldihydro-2(3H)-furanone] ?
Return: 4000

Enquiry: GC Abundance lookup needed for CC/C=C\CCO [CIS-3-HEXEN-1-OL] , thanks.
Return: 14000
